Examples of molecules with documented IC50 follow.
- System: monoclonal antibody 245B5
- Experimental protocol: Competitive ELISA for NNK using monoclonal antibody 245B5
- Type: binding, mice
- Assay conditions: 0.5 B/Bo, read-out: 50% Inhibition at: M
- Description: Microtiter plates (Nunc, Maxisorp) were coated by adding 100 μl per well of goat anti mouse IgG Fc specific (Jackson Immunoresearch, West Grove, Pa.) at 2.5 micrograms per milliliter (μg/ml) in phosphate buffered saline (Sigma Chemical Co.) and allowing the solution to sit overnight. […] Color was read at 650 nm after fifteen minutes in a microplate reader (SpectraMax Plus, Molecular Devices, Sunnyvale, Calif.). […]

Example entries and their recorded answers appear below.
c1cncc([C@@H]2CCCN2)c1 ... > 1000 µM
CN1CCCC1c1cccnc1 (stereo not shown) ... 100 µM
c1cncc([C@@H]2CCCCN2)c1 ... > 1000 µM
CN(CCCC(=O)c1cccnc1)N=O ... 0.0065 µM
C1=CCC(c2cccnc2)NC1 (stereo not shown) ... 1900 µM

Query: Would you mind telling me what IC50 value was observed for CN(CCCC(O)c1cccnc1)N=O (stereo not shown) ?
Result: 0.33 µM

Query: Value lookup for IC50; key = `CN1CCCC[C@H]1c1cccnc1`
Result: 1600 µM

Query: Data request, read-out IC50, for CN(N=O)C(CCC=O)c1cccnc1 (stereo not shown)
Result: 87 µM

Query: # IC50 lookup, item `O=NN1CCCC[C@H]1c1cccnc1`
Result: 7.1 µM

Query: Using the record for `O=NN1CC=CC[C@H]1c1cccnc1` , report its IC50.
Result: 1.8 µM

----------
- System: monoclonal antibody 245B5
- Experimental protocol: Competitive ELISA for NNK using monoclonal antibody 245B5
- Format: binding, mice
- Assay conditions: NNK amount for 50% inhibition divided by test compound amount, x100
Outcome measure: % Crossreactivity (%)
Your answer is read as %, so omit the unit and give the number.

Solved cases (3 shown):
CN(CCCC(=O)c1cccnc1)N=O ... 100.00
CN1CCCC[C@H]1c1cccnc1 ... 0.0005
CN(N=O)C(CCC=O)c1cccnc1 (stereo not drawn) ... 0.0075

Please find the next compound below.
Query: Given the entry C1=CCC(c2cccnc2)NC1 (stereo not drawn) , report its measured % Crossreactivity.
Result: 0.0004

----------
- System: monoclonal antibody 245B5
- Experimental protocol: Competitive ELISA for NNK using monoclonal antibody 245B5
- Assay type: binding, mice
- Assay conditions: Table 3, parent compound vs N-nitroso derivative, read-out: 50% Inhibition at
Outcome measure: IC50

Worked cases, answers included:
C1=CCC(c2cccnc2)NC1 (stereo not drawn) ... 1900 µM
C1CCNC1 ... 20000 µM

Query: Given the entry `c1cncc([C@@H]2CCCCN2)c1` , report its measured IC50.
Result: > 1000 µM
